- experimental-details: qHTS for Inhibitors of Cell Surface uPA Generation; note: nearly all actives have a fitted effect of over 55% in size
- condition-label: cell surface uPA generation assay; series mostly up to 38.3 µM
In all, about 330,000 compounds went through this assay and about 1,000 (0.3%) were called active. Not shown: some 3% with an inconclusive outcome. Calls come from the whole dose curve; as a rule, active = well fitted inhibition curve with a large enough effect; inconclusive = small, poorly fitted or top-dose-only effect; inactive = no such curve, though single readings can be large or run the other way; tested in mouse RAW 264.7 cells. The full list was thinned out, with actives kept by preference.
Parameter call: string, one of 1 = active, 0 = inactive

Prompt: Entry COn1c(-c2ccc(Cl)cc2Cl)nc2ncccc21 : call = ?
Completion: 0

Prompt: Likewise for COC(=O)c1ccc(NCc2cc(O)ccc2O)cc1 ?
Completion: 0

Prompt: Likewise for Cc1oc2c(c1C(=O)N1CCOCC1)C(=O)c1ccccc1C2=O ?
Completion: 1

Prompt: Likewise for CSCCC(NC(=O)COc1ccccc1)C(=O)N1CCN(c2cccc(C(F)(F)F)c2)CC1 (stereo unspecified) ?
Completion: 0

Prompt: Likewise for O=C1C[C@@H]2c3c(cccc3CN1Cc1ccccc1)C[C@@H](O)[C@H]2O ?
Completion: 0

Prompt: Likewise for CN(O)C(=S)c1ccccc1 ?
Completion: 0

Prompt: Likewise for Cc1ccccc1-c1ccc(Nc2ccc(C(=O)N3CCOCC3)cc2)nn1 ?
Completion: 0

Prompt: Likewise for Clc1ccc(-c2cc(-c3ccccn3)on2)c(Cl)c1 ?
Completion: 1

Prompt: Likewise for CN(C(=O)c1cccc(NC(=O)Cc2cccc(NC(=O)C3CCCN(C(=O)C4CC4)C3)c2)c1)C1CCC1 (stereo unspecified) ?
Completion: 0

Prompt: Likewise for NC(=S)NN=C1CCCC(C(F)(F)F)C1 (stereo unspecified) ?
Completion: 0

Prompt: Likewise for O=C1c2ccccc2C(=O)N1Cc1cc(-c2ccccc2Cl)no1 ?
Completion: 0

====

- experimental-details: qHTS for Inhibitors of Cell Surface uPA Generation; note: nearly all actives have a fitted effect of over 55% in size
- condition-label: cell surface uPA generation assay; series mostly up to 38.3 µM
Hit rate of the full screen: of about 330,000 compounds, about 1,000 (0.3%) were called active. Roughly 3% stayed inconclusive and do not appear here. Calls follow the shape of the dose curve; as a rule, active = well fitted inhibition curve with a large enough effect; inconclusive = small, poorly fitted or top-dose-only effect; inactive = no such curve, though single readings can be large or run the other way; tested in mouse RAW 264.7 cells. For the sample, actives were picked, then their nearest neighbours and some compounds at random.
Parameter call: string, one of active, inactive

Prompt: Entry CCOc1ccccc1N1CCN(C(=O)c2ccc3[nH]c(C)c(C)c3c2)CC1 : call = ?
Completion: active

Prompt: Likewise for CCCOc1ccc(Cn2ccnc2)cc1[N+](=O)[O-] ?
Completion: inactive

Prompt: Likewise for COc1ccc(-c2nnc(-c3ccc4ccccc4c3)o2)cc1 ?
Completion: inactive

Prompt: Likewise for CC1(C)CC(N2CCN(C(c3ccccc3)c3ccccc3)CC2)=CC(=[N+]2CCCCC2)C1 ?
Completion: active

Prompt: Likewise for Cc1cc(NC(=O)C(C)SCC(=O)Nc2cccc(S(=O)(=O)N3CCCCCC3)c2)no1 (configuration not stated) ?
Completion: inactive

Prompt: Likewise for Cc1ccc(S(=O)(=O)CCC(=O)OCC(=O)N(C)Cc2ccccc2)cc1 ?
Completion: inactive

Prompt: Likewise for Oc1ccc(Br)cc1C=Nc1ccc2[nH]ncc2c1 ?
Completion: inactive

Prompt: Likewise for COc1ccc(-c2cc3ncccc3cn2)cc1 ?
Completion: active

Prompt: Likewise for O=C1/C(=C\c2ccc(O)cc2)CCC1CNc1ccc(Cl)cc1 (configuration not stated) ?
Completion: inactive

Prompt: Likewise for NS(=O)(=O)c1cccnc1Nc1cccc(Cl)c1 ?
Completion: inactive

Prompt: Likewise for O=C(/C=C\c1ccc2c(c1)OCO2)NC1(C(=O)Nc2ccc3c(c2)OCCO3)CCCCC1 ?
Completion: inactive

Prompt: Likewise for COc1ccc(CNCCCn2cnc3c(OCc4ccccc4)ncnc32)cc1 ?
Completion: inactive

Prompt: Likewise for COc1ccccc1N1CCN(C(=O)c2ccc(Cl)c(S(=O)(=O)N3CCCC3)c2)CC1 ?
Completion: inactive

Prompt: Likewise for COc1ccc(-c2ccc3c(c2)[C@@H]2C[C@H](N(C)S(=O)(=O)c4ccccc4)[C@H]([C@H](C)O)C(=O)N2CC3)cc1 ?
Completion: inactive

Prompt: Likewise for COc1ccc(OC)c(/C=C/C(=O)OCC(=O)Nc2ccc3c(c2)OCCO3)c1 ?
Completion: inactive

Prompt: Likewise for Cc1ccc(S(=O)(=O)n2oc(=O)c(C3CCCCC3)c2N)cc1 ?
Completion: inactive

Prompt: Likewise for CC(C)(C)S(=O)(=O)N1Cc2cc(CO)cc(CCO)c2[C@H]1CCO ?
Completion: inactive

Prompt: Likewise for Cc1ccc(S(=O)(=O)N2CCC(C(=O)N3CCCCCCC3)CC2)cc1 ?
Completion: inactive

Prompt: Likewise for Oc1ccc(/C=N/Nc2ccc(C(F)(F)F)cn2)cc1O ?
Completion: inactive

Prompt: Likewise for CC(C)[C@@H](C(=O)OCC(=O)c1ccc2c(c1)NC(=O)CO2)N1C(=O)c2ccccc2C1=O ?
Completion: inactive

Prompt: Likewise for OCCCNc1nccc(-c2cc(Nc3cccc(Cl)c3)ncn2)n1 ?
Completion: active

Prompt: Likewise for CCCCOc1ccc(CSC(=N)N)cc1[N+](=O)[O-] ?
Completion: inactive

====

- experimental-details: qHTS for Inhibitors of Cell Surface uPA Generation; note: nearly all actives have a fitted effect of over 55% in size; note: potency is the fitted concentration of half-maximal effect
- condition-label: cell surface uPA generation assay; series mostly up to 38.3 µM
About 1,000 (0.3%) of roughly 330,000 compounds were called active. Not shown: some 3% with an inconclusive outcome. Shown is part of a subset that was picked to be rich in actives.
measured-parameter: Potency

Would you please look over these solved cases?
O=C(O)c1ccc(Cn2cnc3c(=S)nc[nH]c32)cc1    inactive
COc1ccc(C(=O)c2c3ccc([N+](=O)[O-])cc3[n+]([O-])n2CCCN)cc1    0.794 µM (active)
Cn1c(CCN2CCCCCC2)nc2cc(NC(=O)Nc3ccccc3)ccc21    inactive
CC(=O)OC1CCC2(C)C(=CCC3C4CC(=O)N(O)C(=O)C4(C)CCC32)C1 (centres undefined)    inactive

Prompt: // lookup Potency for CC(C)=CCc1ccc(O)c(=O)cc1C(C)C
Completion: inactive

Prompt: Likewise for COc1cc(CN2CCC(C(N)=O)CC2)ccc1OCc1ccccc1 ?
Completion: inactive

Prompt: Likewise for CCCC(O)(c1ccccc1)C(c1ccccc1)c1ccccn1 (centres undefined) ?
Completion: inactive

Prompt: Likewise for Oc1c(CN2CCCC2)cc(COCc2ccccc2)c2cccnc12 ?
Completion: 4.47 µM (active)

Prompt: Likewise for NC1=NOC(=O)C1C1CCCCC1 (centres undefined) ?
Completion: inactive

Prompt: Likewise for O=C(N/N=C/c1ccccn1)c1ccc(S(=O)(=O)N2CCCCCC2)cc1 ?
Completion: inactive

Prompt: Likewise for CC(=O)OCC(=O)C1(O)CCC2C3CC(C)C4=CC(=O)CCC4(C)C3C(O)CC21C (centres undefined) ?
Completion: inactive

Prompt: Likewise for O=C(Nc1ncccc1O)c1ccc(S(=O)(=O)N2CCCC2)cc1 ?
Completion: 7.94 µM (active)

====

- experimental-details: qHTS for Inhibitors of Cell Surface uPA Generation; note: nearly all actives have a fitted effect of over 55% in size
- condition-label: cell surface uPA generation assay; series mostly up to 38.3 µM
Screen size: about 330,000 compounds; about 1,000 (0.3%) were called active. Inconclusive results (about 3%) are left out. Calls come from the whole dose curve; as a rule, active = well fitted inhibition curve with a large enough effect; inconclusive = small, poorly fitted or top-dose-only effect; inactive = no such curve, though single readings can be large or run the other way; tested in mouse RAW 264.7 cells. The full list was thinned out, with actives kept by preference.
Parameter call: string, one of 1 = active, -1 = inactive

Prompt: Entry COc1ccc2c(c1)c(=Cc1ccc(N(C)C)cc1)c1cc(-c3ccccc3)[n+](C)n12 : call = ?
Completion: -1

Prompt: Likewise for COc1cccc(CNC(=O)c2nnn(CC(=O)Nc3cc(C)ccc3C)c2N)c1 ?
Completion: -1

Prompt: Likewise for COc1cccc(CNC(=O)c2nnn(CC(=O)Nc3cc(Cl)ccc3C)c2N)c1 ?
Completion: -1

Prompt: Likewise for COc1cccc2c1C(=O)c1c(O)c3c(c(O)c1C2=O)CC(O)(C(C)=NNC(=O)c1ccc(Cl)c(Cl)c1)CC3OC1CC(N)C(O)C(C)O1 (centres undefined) ?
Completion: -1

Prompt: Likewise for O=C(Nc1ccn(CCCNCc2ccc3[nH]ccc3c2)c(=O)n1)OCc1ccccc1 ?
Completion: -1

Prompt: Likewise for CC/C(=C(/c1ccccc1)c1ccc(OCC[N+](C)(C)C)cc1)c1ccccc1 ?
Completion: -1

Prompt: Likewise for CC(C=Cc1ccccc1)=NNS(=O)(=O)c1ccc([N+](=O)[O-])cc1 ?
Completion: -1

Prompt: Likewise for O=C(CC(=O)c1cccnc1)c1ccccc1 ?
Completion: -1

Prompt: Likewise for COc1cc(SC)ccc1C(=O)NCCOc1ccccc1Cl ?
Completion: -1

Prompt: Likewise for O=C(NN=Cc1ccccc1)c1ccccc1 ?
Completion: -1

Prompt: Likewise for Cc1ccc2c(c1)C1CN(C)CCC1N2S(=O)(=O)c1cccc(F)c1 (centres undefined) ?
Completion: -1

Prompt: Likewise for COCC(=O)N(C)[C@H]1C[C@H]2c3cc(Oc4ccccc4C)ccc3CCN2C(=O)[C@H]1[C@H](C)O ?
Completion: -1

Prompt: Likewise for CCN1/C(=C\c2ccc3ccccc3[n+]2CC)Sc2cc(C)ccc21 ?
Completion: 1

Prompt: Likewise for O=c1ccn([C@@H]2O[C@H](CNS(=O)(=O)c3cc4ccccc4s3)[C@@H](O)[C@H]2O)c(=O)[nH]1 ?
Completion: -1

Prompt: Likewise for O=[N+]([O-])c1cc2ccccc2nc1-c1ccccc1 ?
Completion: -1

Prompt: Likewise for COc1ccc(C(=O)Nc2cccc(NC(=O)c3ccc(OC)cc3OC)n2)c(OC)c1 ?
Completion: -1

Prompt: Likewise for OCCN1CCN(CCO)C1=S ?
Completion: -1

Prompt: Likewise for Cc1ccc(CNC(=O)Cn2cnc3c(NCc4ccccc4)ncnc32)o1 ?
Completion: 1

Prompt: Likewise for CCc1c(Nc2ccccc2C)nc(N)[nH]c1=O ?
Completion: -1

Prompt: Likewise for CCCCCCCCNS(=O)(=O)CCNC1CCCCC1 ?
Completion: -1

Prompt: Likewise for COc1ccc(C(=O)Nc2nncs2)c(OC)c1 ?
Completion: 1

Prompt: Likewise for C[C@]12CCC(=O)C=C1C=CC1C2CC[C@@]2(C)C1CC[C@@]21CCC(=O)O1 (some centres undefined) ?
Completion: -1

Prompt: Likewise for CN(C(=O)c1cc2c(=O)n3ccccc3nc2s1)C1CCCCC1 ?
Completion: -1

Prompt: Likewise for Cc1c(/C=N/N2C(=O)C3C4C=CC(C4)C3C2=O)c2ccccc2n1C (centres undefined) ?
Completion: -1

Prompt: Likewise for C=CCNc1cnn(-c2ccc(C)cc2)c(=O)c1Cl ?
Completion: -1

Prompt: Likewise for CC(=O)Nc1ccc(Nc2c3ccccc3nc3ccccc23)cc1 ?
Completion: 1

Prompt: Likewise for CN(C)CCNC(=O)c1ccc(Cl)c2cc3ccccc3nc12 ?
Completion: -1

Prompt: Likewise for O=C(NCCCn1ccnc1)c1ccccc1F ?
Completion: -1

Prompt: Likewise for O=C(NCCCn1ccnc1)c1cc(-c2ccccc2)on1 ?
Completion: 1

Prompt: Likewise for CN(C(=O)CSc1nncc2ccccc12)C1CCCCC1 ?
Completion: -1

Prompt: Likewise for O=c1c2ccccc2ncn1CCc1ccncc1 ?
Completion: -1

Prompt: Likewise for O=C(N/N=C/c1cccc(O)c1)c1cc2c(ccc3ccccc32)o1 ?
Completion: -1

Prompt: Likewise for C[C@H](O)[C@@H]1C(=O)N2CCc3ccc(N4CCOCC4)cc3[C@@H]2C[C@@H]1N(C)C(=O)C(C)(C)C ?
Completion: -1

Prompt: Likewise for NNc1cccc(C=Cc2ccccc2)cc1=O ?
Completion: -1

Prompt: Likewise for COC(=O)Cc1nc2c(N)nc(N)nc2[nH]c1=O ?
Completion: -1

Prompt: Likewise for O=C(CNC(=O)[C@@H]1Cc2ccccc2CN1)NC1CCCCC1 ?
Completion: -1

Prompt: Likewise for COc1ccc2c(c1)C(=O)CC(c1ccccc1)O2 (centres undefined) ?
Completion: -1

Prompt: Likewise for COc1cc(/C=C/c2ccc(/C=C/c3cc(OC)c(OC)c(OC)c3)cc2)cc(OC)c1OC ?
Completion: -1

Prompt: Likewise for COc1cccc(/C=N/Nc2ccc(S(=O)(=O)Nc3ccccc3C(=O)O)cc2[N+](=O)[O-])c1O ?
Completion: -1

Prompt: Likewise for COc1cc(SC)ccc1C(=O)Nc1nc(C)cs1 ?
Completion: 1

Prompt: Likewise for C[C@@H](NC(=O)[C@@H]1Cc2ccccc2CN1)C(=O)NC1CCCC1 ?
Completion: 1

Prompt: Likewise for COc1cc(C2c3cc4c(cc3C(O)C3COC(=O)C23)OCO4)cc(OC)c1OC (centres undefined) ?
Completion: -1

Prompt: Likewise for CNN/C(N=Cc1ccc([N+](=O)[O-])s1)=N\S(=O)(=O)c1cc(C)c(Cl)cc1SCc1ccccc1 ?
Completion: -1

Prompt: Likewise for COc1ccc(C(=O)NC2=NCCS2)c(OC)c1 ?
Completion: -1
